// values below are reported RP-LC retention time
- TEST: gradient 5% acetonitrile 3 min, to 50% in 2 min, to 85% in 15 min, held 3 min, 100 µL/min
- CONDITIONS: column: Zorbax Extend-C18 2.1 x 50 mm; eluents: water / acetonitrile, 0.1% formic acid
Field format: number, assumed s, no unit text.

// worked examples, RP-LC retention time included
COCCN1CC2(CCN(S(=O)(=O)c3ccc(F)cc3F)CC2)C1c1ccncc1 (stereo not given): 623
COCCn1cc(CCNC(=O)Nc2cccc(F)c2)c2cccnc21: 732
Cc1cc(C(=O)N2CCCn3ccnc3C2C2CCCC2)on1 (stereo not given): 599
COc1cc(NC(=O)C2CCN(S(=O)(=O)c3ccc4c(c3)CCCC(=O)N4)CC2)cc(OC)c1: 762
CC(C)CCNC(=O)C1(C)Cn2nc(C(=O)NCc3ccccc3Cl)cc2C(=O)N1C (stereo not given): 814
COc1ccc(C(=O)NC2CCN(c3cc(-c4cccs4)[nH]n3)C2)cc1OC (stereo not given): 638
O=C(CCc1conc1-c1ccccc1)N1CCN(C2CCCCC2)CC1: 630
COCC(=O)NC1CCC12CCN(C(=O)c1ccoc1)CC2 (stereo not given): 643
O=C(CSc1ccc(-c2ccccn2)nn1)Nc1ccc(F)c(F)c1: 789

Alright, here's another compound for you.
## Input Reported RP-LC retention time for CCN1CCN(CCCNC(=O)c2c(N3CCCC3=O)c3cc(F)ccc3n2CC)CC1 : what is it?
## Output 602
